# target: SARM1 (50-724) (Homo sapiens)
# Sequence (Q6SZW1 50-724): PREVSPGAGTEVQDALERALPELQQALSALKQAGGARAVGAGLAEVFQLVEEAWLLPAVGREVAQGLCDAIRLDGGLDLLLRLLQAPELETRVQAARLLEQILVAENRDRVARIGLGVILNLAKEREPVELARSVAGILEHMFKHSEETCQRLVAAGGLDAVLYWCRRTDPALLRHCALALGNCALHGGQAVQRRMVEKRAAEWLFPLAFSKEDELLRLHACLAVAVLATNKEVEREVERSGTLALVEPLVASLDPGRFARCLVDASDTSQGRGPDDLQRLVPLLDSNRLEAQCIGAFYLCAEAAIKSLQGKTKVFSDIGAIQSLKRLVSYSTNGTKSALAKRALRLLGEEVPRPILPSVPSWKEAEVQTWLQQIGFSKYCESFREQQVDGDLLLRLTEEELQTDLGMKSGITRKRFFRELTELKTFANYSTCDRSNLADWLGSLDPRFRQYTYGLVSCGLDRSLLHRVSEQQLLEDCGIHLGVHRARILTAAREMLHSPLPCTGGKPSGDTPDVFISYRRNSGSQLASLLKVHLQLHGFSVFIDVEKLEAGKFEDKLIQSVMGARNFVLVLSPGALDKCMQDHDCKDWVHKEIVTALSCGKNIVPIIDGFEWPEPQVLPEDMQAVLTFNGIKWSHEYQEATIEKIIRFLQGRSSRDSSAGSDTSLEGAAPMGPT
# protocol.description: biochemical
pIC50: −log10 of the molar value.
attribute.measured: pIC50

| compound | pIC50 |
| --- | --- |
| CC(Nc1cc(F)c2ncn(-c3n[nH]cc3Cl)c(=O)c2c1)c1nc(Cl)c(Cl)s1 (racemic) | > 7.00 |

pIC50 lookup needed for CC(Nc1ccc2cccnc2c1)c1cccc(Cl)c1Cl (racemic) , thanks.
6.00 to 6.30
